# experimental system: GST tagged PIP4KtypeIIB (Homo sapiens, UniProt P78356)
# Sequence (P78356 1-416): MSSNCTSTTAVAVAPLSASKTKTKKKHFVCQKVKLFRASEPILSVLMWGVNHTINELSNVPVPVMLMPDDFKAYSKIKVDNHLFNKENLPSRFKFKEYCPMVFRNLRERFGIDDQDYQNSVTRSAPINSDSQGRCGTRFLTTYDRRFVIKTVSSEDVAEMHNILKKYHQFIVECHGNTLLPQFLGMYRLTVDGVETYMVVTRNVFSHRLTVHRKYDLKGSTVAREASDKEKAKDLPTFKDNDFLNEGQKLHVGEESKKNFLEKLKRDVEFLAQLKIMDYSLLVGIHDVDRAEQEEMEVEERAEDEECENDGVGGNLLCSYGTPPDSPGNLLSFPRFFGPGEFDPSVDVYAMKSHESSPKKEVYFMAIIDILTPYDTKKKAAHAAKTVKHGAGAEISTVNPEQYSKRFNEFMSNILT
value type: IC50

# molecule, IC50
measured = [
    ("Cc1ccc2nc(CNC(=O)c3cc4c(-c5cncc(-c6ccc(N7CCCC7=O)cc6)c5)ccnc4[nH]3)[nH]c2c1 [Example 320]", "0.1 to 1 µM"),
    ("O=C(NCc1nc2ccccc2o1)c1cc2c(-c3cncc(-c4ccc(N5CCCC5=O)cc4)c3)ccnc2[nH]1 [Example 245]", "0.01 to 0.1 µM"),
    ("Nc1ncc(-c2ccnc3[nH]c(C(=O)NCC(F)(F)F)cc23)cc1-c1ccc(C(=O)NCC(F)(F)F)cn1 [Example 139]", "2.5 to 5 µM"),
    ("CN(C)C(=O)c1ccc(-c2cncc(-c3ccnc(C(=O)N(C)C)c3)c2)cc1 [Example 9]", "> 5 µM"),
    ("CC(=O)Nc1ncc(-c2cn(C)c3ncc(-c4cncc(-c5ccc(N6CCCC6=O)cc5)c4)cc23)cn1 [Example 350]", "0.1 to 1 µM"),
]

Recorded IC50 for N#Cc1[nH]c2ncccc2c1-c1cncc(-c2ccc(N3CCCC3=O)cc2)c1 [Example 51] , please?
0.01 to 0.1 µM

Also check COCCNC(=O)c1cc2c(-c3cncc(-c4ccc(N5CCCC5=O)cc4)c3)ccnc2[nH]1 [Example 228]
0.01 to 0.1 µM

Also check O=C(NCCc1nn[nH]n1)c1cc2c(-c3cncc(-c4ccc(N5CCCC5=O)cc4)c3)ccnc2[nH]1 [Example 251]
0.01 to 0.1 µM

Also check CN1CCn2c(cc3c(-c4cncc(-c5ccc(N6CCCCCC6=O)cc5)c4)ccnc32)C1=O [Example 345]
0.01 to 0.1 µM

Also check Nc1ncc(-c2ccnc3c2cc2n3CCN(CC3CC3)C2=O)cc1-c1ccc(N2CCCC2=O)cc1 [Example 88]
0.001 to 0.01 µM

* * *

Target chain: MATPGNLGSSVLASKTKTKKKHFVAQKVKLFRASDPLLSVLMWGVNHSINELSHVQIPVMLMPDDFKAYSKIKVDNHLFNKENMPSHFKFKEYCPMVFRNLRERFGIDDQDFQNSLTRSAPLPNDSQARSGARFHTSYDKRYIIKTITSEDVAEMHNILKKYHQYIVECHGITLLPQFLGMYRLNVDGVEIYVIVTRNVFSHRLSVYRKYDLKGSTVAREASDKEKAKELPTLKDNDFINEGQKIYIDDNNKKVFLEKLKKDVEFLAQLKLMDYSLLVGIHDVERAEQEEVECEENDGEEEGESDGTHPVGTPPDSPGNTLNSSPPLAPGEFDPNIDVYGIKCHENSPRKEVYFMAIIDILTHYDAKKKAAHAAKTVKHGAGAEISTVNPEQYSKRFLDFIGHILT
pIC50: −log10 of the molar value.
value type: pIC50

Some solved entries appear below for comparison.
# smi, pIC50
measured = [
    ("CN(C)C(=O)c1cnc2c(c1)c(-c1cncc(-c3ccc(N4CCCC4=O)cc3)c1)nn2C", "6.00 to 7.00"),
    ("O=C(NCc1nc2ccccc2s1)c1cc2c(-c3cncc(-c4ccc(N5CCCC5=O)cc4)c3)ccnc2[nH]1", "6.00 to 7.00"),
    ("O=C(NCc1cccc2c1COB2O)c1cc2c(-c3cncc(-c4ccc(N5CCCC5=O)cc4)c3)ccnc2[nH]1", "7.00 to 8.30"),
    ("O=C(NCc1ccc2c(c1)COB2O)c1cc2c(-c3cncc(-c4ccc(N5CCCC5=O)cc4)c3)ccnc2[nH]1", "7.00 to 8.30"),
    ("CN1CCn2c(cc3c(-c4cncc(-c5ccc(N6CCCCCC6=O)cc5)c4)ccnc32)C1=O", "6.00 to 7.00"),
]

Recorded pIC50 for O=C1CCCN1c1ccc(-c2cncc(-c3c(OC4CCOCC4)cnc4[nH]ccc34)c2)cc1 , please?
5.60 to 6.00

Also check Nc1ncc(-c2cccc3ncsc23)cc1-c1ccc(N2CCCC2=O)cn1
6.00 to 7.00

Also check Cn1ncc2c(-c3cncc(-c4ccc(N5CCCC5=O)cc4)c3)cn(CC#N)c(=O)c21
6.00 to 7.00

Also check Cc1noc2nccc(-c3cncc(-c4ccc(N5CCCC5=O)cc4)c3)c12
5.60 to 6.00

Also check Nc1ncc(-c2ccnc3oc(C(=O)NC4COC4)cc23)cc1-c1ccc(N2CCCC2=O)cc1
7.00 to 8.30

Also check CN(C)C(=O)c1ccc(-c2cc(-c3cc(Nc4cccc(N)c4)ncn3)cnc2N)nc1
6.00 to 7.00
